Biological target: LmjIPCS (inositol phosphorylceramide synthase from L. major) (Leishmania major, UniProt E9AFX2)
Experiment: biochemical
Format: biochemical
Parameters: dose or concentration left out as unconfirmed
Settings: read-out: inhibition LmjIPCS
observed_property: inhibition (%)
Record the value in %, omitting the unit from your answer.

compound | measured_value
CCCCC(=O)N(Cc1ccc(-c2ccccc2-c2nnn[nH]2)cc1)[C@H](C(=O)O)C(C)C | 20
NS(=O)(=O)c1cc2c(cc1Cl)NCNS2(=O)=O [HYDROCHLOROTHIAZIDE] | 13
COc1cc2c(cc1OC)-c1cc3ccc(OC)c(OC)c3c[n+]1CC2 [PALMATINE CHLORIDE] | 16
CCCCNC(=O)NS(=O)(=O)c1ccc(C)cc1 [TOLBUTAMIDE] | 30

Turning to the following compound.
Could you tell me which inhibition is on file for O=C1NC(=O)C(c2ccccc2)(c2ccccc2)N1 ? 14

* * *

Target: LmjIPCS (inositol phosphorylceramide synthase from L. major) (Leishmania major, UniProt E9AFX2)
Sequence (E9AFX2 1-338): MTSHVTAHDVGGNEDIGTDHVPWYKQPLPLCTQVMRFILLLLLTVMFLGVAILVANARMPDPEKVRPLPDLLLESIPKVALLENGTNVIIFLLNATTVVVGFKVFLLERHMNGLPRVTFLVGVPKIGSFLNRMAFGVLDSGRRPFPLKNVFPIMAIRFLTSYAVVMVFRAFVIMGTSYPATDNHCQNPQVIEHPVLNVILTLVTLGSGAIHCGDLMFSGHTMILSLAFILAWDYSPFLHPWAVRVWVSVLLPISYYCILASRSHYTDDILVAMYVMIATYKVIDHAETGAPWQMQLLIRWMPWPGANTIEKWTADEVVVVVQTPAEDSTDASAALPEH
Assay: biochemical
Format: biochemical
Design: dose or concentration left out as unconfirmed
Conditions: screening of NINDS set, sheet Screen 1; read-out: inhibition LmjIPCS
Rule: inhibition of 8% or more gives Satisfied; anything lower gives Not satisfied.

molecule | label_value
O=C(O)c1cc(O)c2ccc(Cl)cc2n1 [7-CHLOROKYNURENIC ACID] | Satisfied

Next, consider the following molecule.
Does the molecule CSC(N)=NCCC[C@H](N)C(=O)O [S-METHYL-L-THIOCITRULLINE ACETATE] have recorded inhibition that is 8% or more? Satisfied

* * *

A collection of molecules and their measured 10mM inhibition L. major
System: L. major (FV1) promastigotes
Assay: Antipromastigote resazurin assay, L. major (FV1) wild type
Format: cell-based, Leishmania major
Conditions: NINDS set screen against L. major promastigotes, single concentration printed as 10mM

10mM inhibition L. major lookup needed for CCN1C[C@]2(COC)[C@H](O)C[C@H](OC)[C@@]34[C@@H]5C[C@@]6(O)[C@H](OC(=O)c7ccccc7)[C@@H]5[C@@](OC(C)=O)([C@@H]([C@H](OC)[C@H]23)[C@@H]14)[C@@H](O)[C@@H]6OC [ACONITINE] , thanks. <5%

* * *

Target: UniProt:E9AFX2
Sequence (E9AFX2 1-338): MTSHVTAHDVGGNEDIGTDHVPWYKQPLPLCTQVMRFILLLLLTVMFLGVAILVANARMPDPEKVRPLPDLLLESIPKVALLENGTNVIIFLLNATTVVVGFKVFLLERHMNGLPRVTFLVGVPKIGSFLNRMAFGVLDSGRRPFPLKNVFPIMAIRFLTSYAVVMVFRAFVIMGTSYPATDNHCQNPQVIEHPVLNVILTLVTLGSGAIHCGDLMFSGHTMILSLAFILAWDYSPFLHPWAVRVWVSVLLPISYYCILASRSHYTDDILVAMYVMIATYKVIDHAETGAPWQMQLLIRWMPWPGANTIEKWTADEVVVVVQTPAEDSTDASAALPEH
Test: biochemical
Type: biochemical
Design: dose or concentration left out as unconfirmed
Details: NINDS set screen; read-out: inhibition LmjIPCS
Attribute: inhibition
Write the number in % without appending the unit.

Answered cases to consult:
compound | inhibition, %
O=C(O)c1nc2cc(Cl)c(Cl)cc2nc1O | -14
CCCN(CCC)S(=O)(=O)c1ccc(C(=O)O)cc1 | 13
CCCCCCCC/C=C/CCCCCCCCOP(=O)([O-])OCC[N+](C)(C)C | -7
CC(=O)S[C@@H]1CC2=CC(=O)CC[C@]2(C)[C@H]2CC[C@@]3(C)[C@@H](CC[C@@]34CCC(=O)O4)[C@H]12 | -1.06
CC[C@@H]1C(=O)OC[C@@H]1Cc1cncn1C | -4.6
OC(CCN1CCCCC1)(c1ccccc1)c1ccccc1 | 27

Please state recorded inhibition (tested on UniProt:E9AFX2) of Cn1cc[nH]c1=S 13
